System: 282377-053-R-J1-PDC complex spheroids, viability;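 further: spheroids exposed to compounds for 7 days before readout; percent of vehicle DMSO control viability with 100% = untreated-like growth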
test-protocol: Anticancer human tumor 282377-053-R-J1-PDC patient-derived colon adenocarcinoma cell line growth inhibition [GQUAD]
test-parameters: second compound 0.0316 µM; first compound 0.0316 µM; active compounds read low
Hi there, I'd appreciate the recorded viability, T/C for every entry that follows.
Write the number in % without appending the unit.

Q: Given O=c1[nH]cc(F)c(=O)[nH]1 + CN(C)c1ccc(Nc2c3ccc(NC(=O)CCN4CCCC4)cc3nc3cc(NC(=O)CCN4CCCC4)ccc23)cc1 , state its recorded viability, T/C.
A: 95.5

Q: Given COc1cccc2c1C(=O)c1c(O)c3c(c(O)c1C2=O)CC(O)(C(=O)CO)CC3OC1CC(N)C(O)C(C)O1 (stereo unspecified) + Cc1[nH]c2ccc(F)cc2c1-c1nc2c3cccnc3c3ncccc3c2[nH]1 , state its recorded viability, T/C.
A: 108

Q: Given C#Cc1c(F)ccc2cc(O)cc(-c3ncc4c(N5CC6CCC(C5)N6)nc(OCC56CCCN5CC(F)C6)nc4c3F)c12 (stereo unspecified) + Cc1cnc(CNC(=O)c2c(=O)c3ccc(N4CCCN(C)CC4)nc3n3c2sc2ccccc23)cn1 , state its recorded viability, T/C.
A: 102

Q: Given Cc1[nH]c2ccccc2c1CCNCc1ccc(/C=C/C(=O)NO)cc1 + Cc1[nH]c2ccc(F)cc2c1-c1nc2c3cccnc3c3ncccc3c2[nH]1 , state its recorded viability, T/C.
A: 90.3

Q: Given C=CCn1c(=O)c2cnc(Nc3ccc(N4CCN(C)CC4)cc3)nc2n1-c1cccc(C(C)(C)O)n1 + Cc1cnc(CNC(=O)c2c(=O)c3ccc(N4CCCN(C)CC4)nc3n3c2sc2ccccc23)cn1 , state its recorded viability, T/C.
A: 109

Q: Given CCCS(=O)(=O)Nc1ccc(F)c(C(=O)c2c[nH]c3ncc(-c4ccc(Cl)cc4)cc23)c1F + Cc1cnc(CNC(=O)c2c(=O)c3ccc(N4CCCN(C)CC4)nc3n3c2sc2ccccc23)cn1 , state its recorded viability, T/C.
A: 89.5

Q: Given Cn1ncnc1[C@H]1c2n[nH]c(=O)c3cc(F)cc(c23)N[C@@H]1c1ccc(F)cc1 + Cc1cnc(CNC(=O)c2c(=O)c3ccc(N4CCCN(C)CC4)nc3n3c2sc2ccccc23)cn1 , state its recorded viability, T/C.
A: 107

Q: Given O=c1[nH]cc(F)c(=O)[nH]1 + Cc1[nH]c2ccc(F)cc2c1-c1nc2c3cccnc3c3ncccc3c2[nH]1 , state its recorded viability, T/C.
A: 92.8

Q: Given CC(C)(O)C1CCC(Nc2ccc3ncc(-c4cccc(C(F)(F)F)c4)n3n2)CC1 (stereo unspecified) + Cc1[nH]c2ccc(F)cc2c1-c1nc2c3cccnc3c3ncccc3c2[nH]1 , state its recorded viability, T/C.
A: 107

Q: Given CC1COCCN1c1cc(-c2ccnn2C)c2ccnc(-c3ccn[nH]3)c2n1 (stereo unspecified) + Cc1[nH]c2ccc(F)cc2c1-c1nc2c3cccnc3c3ncccc3c2[nH]1 , state its recorded viability, T/C.
A: 83.8

Q: Given Cn1ncnc1[C@H]1c2n[nH]c(=O)c3cc(F)cc(c23)N[C@@H]1c1ccc(F)cc1 + CN(C)c1ccc(Nc2c3ccc(NC(=O)CCN4CCCC4)cc3nc3cc(NC(=O)CCN4CCCC4)ccc23)cc1 , state its recorded viability, T/C.
A: 104

Q: Given CCCS(=O)(=O)Nc1ccc(F)c(C(=O)c2c[nH]c3ncc(-c4ccc(Cl)cc4)cc23)c1F + CN(C)c1ccc(Nc2c3ccc(NC(=O)CCN4CCCC4)cc3nc3cc(NC(=O)CCN4CCCC4)ccc23)cc1 , state its recorded viability, T/C.
A: 81

Q: Given CC[C@@]1(O)C(=O)OCc2c1cc1n(c2=O)Cc2cc3c(CN(C)C)c(O)ccc3nc2-1 + Cc1cnc(CNC(=O)c2c(=O)c3ccc(N4CCCN(C)CC4)nc3n3c2sc2ccccc23)cn1 , state its recorded viability, T/C.
A: 107

Q: Given O=C(c1cc(Cc2n[nH]c(=O)c3ccccc23)ccc1F)N1CCN(C(=O)C2CC2)CC1 + CN(C)c1ccc(Nc2c3ccc(NC(=O)CCN4CCCC4)cc3nc3cc(NC(=O)CCN4CCCC4)ccc23)cc1 , state its recorded viability, T/C.
A: 102

Q: Given C=CC(=O)N1CCN(c2nc(=O)n(-c3c(C)ccnc3C(C)C)c3nc(-c4c(O)cccc4F)c(F)cc23)C(C)C1 (stereo unspecified) + Cc1[nH]c2ccc(F)cc2c1-c1nc2c3cccnc3c3ncccc3c2[nH]1 , state its recorded viability, T/C.
A: 106

Q: Given COc1ccc([C@@H](O)c2cc(-c3ncnc4cc(N5CCOCC5)ccc34)c(F)cc2Cl)nn1 + CN(C)c1ccc(Nc2c3ccc(NC(=O)CCN4CCCC4)cc3nc3cc(NC(=O)CCN4CCCC4)ccc23)cc1 , state its recorded viability, T/C.
A: 96.4

Q: Given COc1ccc([C@@H](O)c2cc(-c3ncnc4cc(N5CCOCC5)ccc34)c(F)cc2Cl)nn1 + Cc1cnc(CNC(=O)c2c(=O)c3ccc(N4CCCN(C)CC4)nc3n3c2sc2ccccc23)cn1 , state its recorded viability, T/C.
A: 97

Q: Given C=CC(=O)N1CCN(c2nc(=O)n(-c3c(C)ccnc3C(C)C)c3nc(-c4c(O)cccc4F)c(F)cc23)C(C)C1 (stereo unspecified) + Cc1cnc(CNC(=O)c2c(=O)c3ccc(N4CCCN(C)CC4)nc3n3c2sc2ccccc23)cn1 , state its recorded viability, T/C.
A: 129

Q: Given COc1cc(C2c3cc4c(cc3C(OC3OC5COC(C)OC5C(O)C3O)C3COC(=O)C23)OCO4)cc(OC)c1O (stereo unspecified) + Cc1cnc(CNC(=O)c2c(=O)c3ccc(N4CCCN(C)CC4)nc3n3c2sc2ccccc23)cn1 , state its recorded viability, T/C.
A: 127

Q: Given Cc1cccc(N(C)C(=O)C2C(O)CCN2c2nc(C)cc(C(F)(F)F)c2C#N)c1 (stereo unspecified) + Cc1[nH]c2ccc(F)cc2c1-c1nc2c3cccnc3c3ncccc3c2[nH]1 , state its recorded viability, T/C.
A: 89.3

Q: Given Cc1cccc(N(C)C(=O)C2C(O)CCN2c2nc(C)cc(C(F)(F)F)c2C#N)c1 (stereo unspecified) + CN(C)c1ccc(Nc2c3ccc(NC(=O)CCN4CCCC4)cc3nc3cc(NC(=O)CCN4CCCC4)ccc23)cc1 , state its recorded viability, T/C.
A: 110

# credit: PubChem BioAssay AID2060501
